# test_protocol: qHTS profiling for inhibitors of Plasmodium falciparum (DD2) proliferation (AID 743323)
# conditions: lower = more inhibition; at 28.7 µM (top of the series)
# Method: Plasmodium falciparum is a virulent malarial parasite that kills 1-2 million people worldwide each year. […] Because mature erythrocytes lack DNA, only Plasmodium-derived DNA is detected. The SYBR Green viability assay was adapted from a method described previously (Plouffe et al., 2008). […] The following morning, fluorescence intensity at 485(14) nm excitation and 535(25) nm emission wavelengths was measured on an EnVision (Perkin Elmer) plate reader. […]
// reported activity, percent of control for each item listed
Provide only the numeric value, understood in %.

// solved cases for activity, percent of control follow
{"chem_smiles": "CO[C@@H](C(=O)N1Cc2[nH]nc(NC(=O)c3ccc(N4CCN(C)CC4)cc3)c2C1)c1ccccc1", "reported_result": 24.6}
{"chem_smiles": "OC[C@H]1O[C@@H](n2cnc3c2NC=NC[C@@H]3O)C[C@H]1O", "reported_result": 106}

## Task Please give the measured activity, percent of control for this compound: O=c1cc(CN2CCOCC2)occ1OCCCCCSc1ccnc2cc(C(F)(F)F)ccc12
## Result 26.8

## Task Please give the measured activity, percent of control for this compound: COc1cc2ncnc(-n3nc(-c4ccccn4)nc3N)c2cc1OC
## Result 96.4
